Ref: patent US11390591B2

System: cell lines of human non-small cell lung cancer (H522)
protocolDetails: In vitro antineoplastic activity, MTT experiment, H522
Type: cell-based
conditionContext: H522 cells, 48 hours, highest concentration tested 31.6 μM (>30: inhibition rate <50%)
Classification field. Basis: IC50. Definitions: bottom bin (below 2 µM), middle bin (2 µM to below 4 µM), top bin (4 µM or more)

Check out these entries, answers already filled in.
structureNotation	group
O=C(Nc1ccc(Cl)cc1)Nc1ccc(Nc2nc(/C=C/c3cccc([N+](=O)[O-])c3)nc(N3CCOCC3)n2)cc1	bottom bin
CN1CCN(c2nc(/C=C/c3cccc(Cl)c3)nc(Nc3cccc(NC(=O)Nc4ccc(Cl)cc4)c3)n2)CC1	top bin
CN1CCN(c2nc(/C=C/c3cccc([N+](=O)[O-])c3)nc(Nc3ccc(NC(=O)Nc4ccc(Cl)cc4)cc3)n2)CC1	middle bin
CN1CCN(c2nc(/C=C/c3cccc(Cl)c3)nc(Nc3ccc(NC(=O)Nc4ccc(Cl)cc4)cc3)n2)CC1	bottom bin
O=C(Nc1ccc(Cl)cc1)Nc1ccc(Nc2nc(/C=C/c3ccccc3)nc(N3CC(O)C3)n2)cc1	top bin

Attention now turns to another entry.
Note: place this molecule into its band. Item: CN1CCN(c2nc(/C=C/c3cccc([N+](=O)[O-])c3)nc(Nc3ccc(NC(=O)Nc4ccc(F)cc4)cc3)n2)CC1
bottom bin

----------
Tested on: cell lines of human brain glioma (U87)
protocolDetails: In vitro antineoplastic activity, MTT experiment, U87
Assay type: cell-based
conditionContext: Homo sapiens; ability to inhibit cell proliferation, U87 (FIG. 3); unit inferred; read-out: IC50
assayEndpoint: pIC50
Units for pIC50: none; it is -log10 of a concentration expressed in mol/L.

Please list pIC50 recorded for the compound Cl.O=C(Nc1ccc(Cl)cc1)Nc1ccc(Nc2nc(/C=C/c3cccc([N+](=O)[O-])c3)nc(N3CCOCC3)n2)cc1 [compound 68]
5.48

----------
Tested on: cell lines of human non-small cell lung cancer (H522)
protocolDetails: In vitro antineoplastic activity, MTT experiment, H522
Assay type: cell-based
conditionContext: H522 cells, 48 hours, highest concentration tested 31.6 μM (>30: inhibition rate <50%)
Rule: measured IC50 below 4 µM gets met; anything equal to or greater than 4 µM gets not met.

Check out these entries, answers already filled in.
compound	group
O=C(Nc1ccc(Cl)cc1)Nc1ccc(Nc2nc(/C=C/c3cccc([N+](=O)[O-])c3)nc(N3CC(O)C3)n2)cc1 [L22]	met
CN(C)CCNC(=O)c1ccc(NC(=O)Nc2ccc(Nc3nc(/C=C/c4ccccc4)nc(N4CCOCC4)n3)cc2)cc1 [L32]	not met
O=C(Nc1ccc(Cl)cc1)Nc1cccc(Nc2nc(/C=C/c3ccccc3)nc(N3CCOCC3)n2)c1 [L23]	met
O=C(Nc1ccc(Nc2nc(/C=C/c3ccc(Cl)cc3)nc(N3CCOCC3)n2)cc1)Nc1cccc(F)c1 [L12]	met
O=C(Nc1ccc(Cl)cc1)Nc1cccc(Nc2nc(/C=C/c3cccc(Cl)c3)nc(N3CCOCC3)n2)c1 [L25]	met

Does this compound meet the criterion IC50 < 4 µM? CC1CCN(C(=O)c2ccc(NC(=O)Nc3ccc(Nc4nc(/C=C/c5ccccc5)nc(N5CCOCC5)n4)cc3)cc2)CC1 [L30]
not met

Does this compound meet the criterion IC50 < 4 µM? O=C(Nc1ccc(F)cc1)Nc1ccc(Nc2nc(/C=C/c3ccccc3)nc(N3CCOCC3)n2)cc1 [L2]
met

Does this compound meet the criterion IC50 < 4 µM? CN(C)c1nc(/C=C/c2cccc([N+](=O)[O-])c2)nc(Nc2ccc(NC(=O)Nc3ccc(Cl)cc3)cc2)n1 [L20]
not met

Does this compound meet the criterion IC50 < 4 µM? CCN(CC)CCNC(=O)c1ccc(NC(=O)Nc2ccc(Nc3nc(/C=C/c4ccccc4)nc(N4CCOCC4)n3)cc2)cc1 [L33]
not met

Does this compound meet the criterion IC50 < 4 µM? O=C(Nc1ccc(Cl)cc1)Nc1ccc(Nc2nc(/C=C/c3cccc(Cl)c3)nc(N3CCOCC3)n2)cc1 [L6]
not met

Does this compound meet the criterion IC50 < 4 µM? O=C(Nc1ccc(Cl)cc1)Nc1cccc(Nc2nc(/C=C/c3cccc([N+](=O)[O-])c3)nc(N3CCOCC3)n2)c1 [L27]
met

Does this compound meet the criterion IC50 < 4 µM? O=C(Nc1ccc(Cl)cc1)Nc1ccc(Nc2nc(/C=C/c3cccc([N+](=O)[O-])c3)nc(N3CCCC3)n2)cc1 [L21]
not met

Does this compound meet the criterion IC50 < 4 µM? CN1CCN(c2nc(/C=C/c3cccc([N+](=O)[O-])c3)nc(Nc3cccc(NC(=O)Nc4ccc(Cl)cc4)c3)n2)CC1 [L28]
met

Does this compound meet the criterion IC50 < 4 µM? O=C(Nc1ccc(F)cc1)Nc1ccc(Nc2nc(/C=C/c3cccc([N+](=O)[O-])c3)nc(N3CCOCC3)n2)cc1 [L17]
not met

Does this compound meet the criterion IC50 < 4 µM? CN1CCN(c2nc(/C=C/c3ccc(Cl)cc3)nc(Nc3ccc(NC(=O)Nc4cccc(F)c4)cc3)n2)CC1 [L15]
not met

Does this compound meet the criterion IC50 < 4 µM? CN1CCN(c2nc(/C=C/c3cccc(Cl)c3)nc(Nc3ccc(NC(=O)Nc4ccc(F)cc4)cc3)n2)CC1 [L9]
met

Does this compound meet the criterion IC50 < 4 µM? O=C(Nc1ccc(Cl)cc1)Nc1ccc(Nc2nc(/C=C/c3ccccc3)nc(N3CCOCC3)n2)cc1 [L1]
met

----------
System: cell lines of human non-small cell lung cancer (H522)
protocolDetails: In vitro antineoplastic activity, MTT experiment, H522
Assay type: cell-based
conditionContext: H522 cells, 48 hours, highest concentration tested 31.6 μM (>30: inhibition rate <50%)
assayEndpoint: IC50 (µM)
Field: numeric (µM). Do not append units.

structureNotation	assayEndpoint	uom	dataValue
CN1CCN(c2nc(/C=C/c3ccccc3)nc(Nc3cccc(NC(=O)Nc4ccc(Cl)cc4)c3)n2)CC1	IC50	µM	4.03
O=C(Nc1ccc(Nc2nc(/C=C/c3ccccc3)nc(N3CCOCC3)n2)cc1)Nc1ccc(C(=O)NCCN2CCCC2)cc1	IC50	µM	4.14
CN1CCN(c2nc(/C=C/c3ccccc3)nc(Nc3ccc(NC(=O)Nc4ccc(F)cc4)cc3)n2)CC1	IC50	µM	1.92
O=C(Nc1ccc(F)cc1)Nc1ccc(Nc2nc(/C=C/c3cccc(Cl)c3)nc(N3CCOCC3)n2)cc1	IC50	µM	1.42
O=C(Nc1ccc(Nc2nc(/C=C/c3ccccc3)nc(N3CCOCC3)n2)cc1)Nc1ccc(C(=O)NCCN2CCOCC2)cc1	IC50	µM	5.19
O=C(Nc1ccc(Cl)cc1)Nc1ccc(Nc2nc(/C=C/c3ccc(Cl)cc3)nc(N3CCOCC3)n2)cc1	IC50	µM	2.18

Could you now look at the following compound, please?
Please list IC50 recorded for the compound CN1CCN(c2nc(/C=C/c3ccc(Cl)cc3)nc(Nc3ccc(NC(=O)Nc4ccc(F)cc4)cc3)n2)CC1
5.03
